Origin of values: patent US8269000B2

- EXPERIMENTAL TARGET: rat B1R (Rattus norvegicus, UniProt P97583)
- Construct: expressed in transfected cells; host or cells: CHO K1 cells
- Sequence (P97583 whole entry): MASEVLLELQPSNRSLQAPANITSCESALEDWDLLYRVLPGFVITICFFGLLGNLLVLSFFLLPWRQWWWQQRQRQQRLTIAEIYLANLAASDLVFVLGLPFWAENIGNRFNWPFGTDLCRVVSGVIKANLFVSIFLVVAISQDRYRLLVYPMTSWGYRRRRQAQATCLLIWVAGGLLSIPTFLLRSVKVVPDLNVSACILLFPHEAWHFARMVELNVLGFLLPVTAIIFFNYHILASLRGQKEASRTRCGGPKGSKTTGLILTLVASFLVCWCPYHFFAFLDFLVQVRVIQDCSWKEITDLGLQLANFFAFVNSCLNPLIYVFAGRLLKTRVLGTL
- ASSAY COMMENT: FLIPR Ca2+ functional study on bradykinin receptor 1 (rB1R CHO K1 cells)
- Assay type: cell-based
- CONDITION DETAILS: CHO-K1, % inhibition rat B1R at 10 μM, read-out: % inh. (rat B1R) 10 μM
# thresholds on inhibition at 10 µM define classes: range A = under 60%, range B = from 60% up to 90%, range C = 90% and over

State the band of COc1cc(C)c(S(=O)(=O)N(C)C(COc2nccc(N3[C@@H]4CC[C@H]3CC(Oc3cccnc3)C4)n2)c2ccccc2)c(C)c1 (stereo partly shown) range C

Record COc1cc(C)c(S(=O)(=O)N2CCCCC2COc2ccnc(N3CCC(O)(c4cccnc4)CC3)n2)c(C)c1 (stereo not shown) — which class? range B

Hey, which category is `COc1cc(C)c(S(=O)(=O)NC2(COc3nccc(N4CCC5(CCN(c6ccncc6)CC5)CC4)n3)CCC2)c(C)c1` in, do you know? range C

Given COc1cc(C)c(S(=O)(=O)N2CCCCC2COc2ccnc(N3CCC(c4cccc(F)c4)(N4CCN(C)CC4)CC3)n2)c(C)c1 (stereo not shown) , name the class its inhibition at 10 µM places it in. range B

For the record `COc1cc(C)c(S(=O)(=O)N2CCC[C@H]2COc2nccc(N3CCC4(CCN(Cc5ccc(F)cc5)C4=O)CC3)n2)c(C)c1` , report the class its inhibition at 10 µM corresponds to. range C

Classify this molecule: COc1cc(C)c(S(=O)(=O)N(C)CCOc2ccnc(N3CC4CC3CN4Cc3ccncc3)n2)c(C)c1 (stereo not shown) range B

Any idea which band `COc1cc(C)c(S(=O)(=O)N(C)CCOc2nccc(N(C)CCN3CCC(c4ccccc4)(N4CCCC4)CC3)n2)c(C)c1` is in? range B

Dear colleague, I would appreciate it if you could identify the bin for COc1cc(C)c(S(=O)(=O)N2CCC[C@@H]2COc2ccnc(N3CCCC3Cc3ccccn3)n2)c(C)c1 (stereo partly shown) and reply at your convenience. range A

Category of `COc1cc(C)c(S(=O)(=O)N2CCC[C@H]2COc2ccnc(N3CCC(N4CCN(C)CC4)CC3)n2)c(C)c1` , please. range C

Just checking, what class would you give CCCCC1(N(C)C)CCN(c2nccc(OCC3CCCCN3S(=O)(=O)c3c(C)cc(OC)cc3C)n2)CC1 (stereo not shown) here? range B

Which category fits this record: `COc1cc(C)c(S(=O)(=O)N2c3ccccc3C[C@H]2COc2nccc(N3CCC(Oc4cnccn4)CC3)n2)c(C)c1` range B

For the record COc1cc(C)c(S(=O)(=O)N2CCCCC2COc2ccnc(N3CCC(CNC(=O)c4ccncc4)(N4CCN(C)CC4)CC3)n2)c(C)c1 (stereo not shown) , report the class its inhibition at 10 µM corresponds to. range A

Field: class (inhibition at 10 µM) — entry: COc1cc(C)c(S(=O)(=O)N2CCCCC2COc2nccc(N3CCC4(CC3)OCc3ccccc34)n2)c(C)c1 (stereo not shown) range A

For COc1cc(C)c(S(=O)(=O)N(C)CCOc2ccnc(N3CCCC3Cc3ccccn3)n2)c(C)c1 (stereo not shown) , which inhibition at 10 µM bin applies? range A

Entry `COc1cc(C)c(S(=O)(=O)N(CCOc2nccc(NCCC3CCN(c4ccncc4)CC3)n2)C2CC2)c(C)c1` belongs to which category? range C

For this molecule, which bin applies? COc1cc(C)c(S(=O)(=O)N(CCOc2nccc(N3CCC4(CCN(c5ccncc5)C4)C3)n2)C2CC2)c(C)c1 (stereo not shown) range C

Hello team, could you let me know which band the following molecule falls into: `COc1cc(C)c(S(=O)(=O)N(C)CCOc2ccnc(N3CCC4(CCN(Cc5ccc(F)cc5)C4=O)CC3)n2)c(C)c1` range A

Which of the defined bands does the recorded inhibition at 10 µM of COc1cc(C)c(S(=O)(=O)N2CCCCC2COc2ccnc(N3CCC4(CCN(Cc5ccccc5)C4)C3)n2)c(C)c1 (stereo not shown) sit within? range B

# classify by inhibition at 10 µM band: `COc1cc(C)c(S(=O)(=O)N2c3ccccc3C[C@H]2COc2ccnc(N3CCN(c4ccncc4)CC3)n2)c(C)c1` range C

Tag the class for COc1cc(C)c(S(=O)(=O)N2CCCC(Oc3ccnc(N(C)CCN4CCC(c5ccccc5)(N(C)C)CC4)n3)C2)c(C)c1 (stereo not shown) range A

For the record COc1cc(C)c(S(=O)(=O)N2CCCCC2COc2ccnc(N(C)CCCN3CCC(c4ccccc4)(N(C)C)CC3)n2)c(C)c1 (stereo not shown) , report the class its inhibition at 10 µM corresponds to. range C

Bin? COc1cc(C)c(S(=O)(=O)N2CCCCC2COc2nccc(N3CCC(CCN4CCCC4)CC3)n2)c(C)c1 (stereo not shown) range C
